Assay: amyloid nucleation score (Sup35N fusion, yeast selection) (log enrichment); library NNK3; higher = more nucleation; inactive = no reads after selection;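 note: zero at mode of non-aggregating sequences after 7 days selection at 30°C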
Parameter: amyloid nucleation score

// known answers, use as guide
HLGYTVYSRTMRSSFVFRVL	inactive
WWPLSLGNNVGPLHCRSRWE	inactive
LMSVLRFQTP	inactive
TWLSFIRLNMMPINTSTCYP	inactive
VISIPHGSAIRTCIVITMSL	inactive

Summary for this substance, ERFIKN : amyloid nucleation score is inactive

Summary for this substance, NSYIFVQALMTFGDLTWAFH : amyloid nucleation score is 2.34

Summary for this substance, LNLGIFV : amyloid nucleation score is inactive

Summary for this substance, SGKILQRPLSWLSCVMQVES : amyloid nucleation score is inactive

---

Assay: amyloid nucleation score (Sup35N fusion, yeast selection) (log enrichment); library NNK3; higher = more nucleation; inactive = no reads after selection
Parameter: amyloid nucleation score

// known answers, use as guide
MMSDLILV	-0.43
PVRIVLVKPGIFMLDVTYSP	inactive
SLNLEENLSFHGVCRMYFNE	inactive
PSTGLNSVKNRIDVSCGFR	inactive
LRGDGLMIVIVVWCIYGYLC	inactive
ELGHSKSTMFNVYYVVWSRC	inactive

Summary for this substance, MCFGKYLSL : amyloid nucleation score is inactive

Summary for this substance, TFCMLCYQNSIFTVYNSEYQ : amyloid nucleation score is 3.36

Summary for this substance, VFSGIL : amyloid nucleation score is inactive

Summary for this substance, EVYDLESGVSITYMCMCVVL : amyloid nucleation score is inactive

Summary for this substance, RLGSSNV : amyloid nucleation score is inactive

Summary for this substance, TSSHLIGLFYDMLFRDTRSM : amyloid nucleation score is inactive

Summary for this substance, RNFMSFRWPVLKLQRRVP : amyloid nucleation score is inactive

Summary for this substance, TDYQNWFNVEINKF : amyloid nucleation score is 1.48

Summary for this substance, RYYCMYSSGEIRCSVSWGVW : amyloid nucleation score is inactive

Summary for this substance, KPMGYYLFDVTTELYDNDWF : amyloid nucleation score is inactive

Summary for this substance, SDIVCVKLEYT : amyloid nucleation score is inactive

Summary for this substance, KGLFWEGYGMMLRLRWWMMV : amyloid nucleation score is inactive

Summary for this substance, PKIRSF : amyloid nucleation score is inactive

Summary for this substance, LKCSLLYCRCRPGYQIAGT : amyloid nucleation score is inactive

Summary for this substance, GLDTAR : amyloid nucleation score is inactive

Summary for this substance, SVLVIFVLLSIGSAVKLNYG : amyloid nucleation score is inactive

Summary for this substance, YGFAYV : amyloid nucleation score is -0.336

Summary for this substance, KFLYGGFCGWMSAVLNVLYP : amyloid nucleation score is -0.364

---

Experiment: amyloid nucleation score (Sup35N fusion, yeast selection) (log enrichment); library NNK1; higher = more nucleation; inactive = no reads after selection
Decide by amyloid nucleation score: equal to or exceeding -0.06 means 1, less means -1.

Example entries and their recorded answers appear below.
RKDRLTIGNRNL	1
EGHWGFWPIGSFTCTSFLVY	1
SSLVKTS	-1
NLSTCDE	1
RNCNNVYFELSVLASFLRVR	1

Would you say VPNVGYI shows amyloid nucleation score at minimum -0.06?
1

Would you say KRSRYSKR shows amyloid nucleation score at minimum -0.06?
1

Would you say DITNVAWNMPNTRCEPKPLK shows amyloid nucleation score at minimum -0.06?
1
